Test system: c-Abl (mouse);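 also: 11-residue human phosphosite peptides and single-mutation variants displayed on the E. coli surface, counted by deep sequencing, each peptide's frequency after selection divided by its frequency in the unselected input library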;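 also: frequency after pTyr selection over input frequency; kinase dosed for 20-30% of maximal phosphorylation in three min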
assay details: phosphorylation enrichment, bacterial display (enrichment ratio); higher = better substrate or ligand; peptides without Tyr show the background
Note to self: values exactly at 0.8 are Met. So phosphorylation enrichment at or above 0.8 is Met, below is Not met.

Input line: Confirm if phosphorylation enrichment reported for the sequence ETKRPYTVILI [SBDS_Y128] is 0.8 or above.
Output line: Met

Input line: Confirm if phosphorylation enrichment reported for the sequence SAEEDYIADAK [KCNT1_Y876_M877I] is 0.8 or above.
Output line: Met

Input line: Confirm if phosphorylation enrichment reported for the sequence TKDTFYQQPMF [GBA_Y451_K452Q] is 0.8 or above.
Output line: Met

Input line: Confirm if phosphorylation enrichment reported for the sequence TQPSPYAVFLF [RPGRIP1_Y823_R827L_YF] is 0.8 or above.
Output line: Met

Input line: Confirm if phosphorylation enrichment reported for the sequence LSRDVYEEDSF [RET_Y900_YF] is 0.8 or above.
Output line: Met

Input line: Confirm if phosphorylation enrichment reported for the sequence VQNIVYRTASI [CYP39A1_Y102] is 0.8 or above.
Output line: Not met

Input line: Confirm if phosphorylation enrichment reported for the sequence PEIIAYQPFGK [PRKCG_Y529_YF] is 0.8 or above.
Output line: Not met

Input line: Confirm if phosphorylation enrichment reported for the sequence SGFESYGSSSF [RPA2_Y9_YF] is 0.8 or above.
Output line: Not met

Input line: Confirm if phosphorylation enrichment reported for the sequence EQKKFYNATKK [SCN5A_Y1495_M1498T_YF] is 0.8 or above.
Output line: Not met

Input line: Confirm if phosphorylation enrichment reported for the sequence ETAENYLGHTA [HSPA9_Y181] is 0.8 or above.
Output line: Not met

Input line: Confirm if phosphorylation enrichment reported for the sequence STEAIYRRFSK [SH3PXD2B_Y42_YF] is 0.8 or above.
Output line: Met

Input line: Confirm if phosphorylation enrichment reported for the sequence KGEDFYCVTYH [FHL1_Y149_C153Y] is 0.8 or above.
Output line: Met

Input line: Confirm if phosphorylation enrichment reported for the sequence HQKKPYCHAHN [NRAP_Y53] is 0.8 or above.
Output line: Met

Input line: Confirm if phosphorylation enrichment reported for the sequence AVEDQYYRVDC [FHL1_Y207_C209R] is 0.8 or above.
Output line: Met

Input line: Confirm if phosphorylation enrichment reported for the sequence GKVFIYHGSSL [ITGA7_Y458] is 0.8 or above.
Output line: Not met

Input line: Confirm if phosphorylation enrichment reported for the sequence GREEFYVHFVG [KAT8_Y90_YF] is 0.8 or above.
Output line: Met

Input line: Confirm if phosphorylation enrichment reported for the sequence EAEPFYRSLRD [NPHS1_Y1139_YF] is 0.8 or above.
Output line: Not met

Input line: Confirm if phosphorylation enrichment reported for the sequence LSDGPYSSPYE [EPOR_Y485_N487S] is 0.8 or above.
Output line: Met

Input line: Confirm if phosphorylation enrichment reported for the sequence SSAKTYSRMRL [NBEAL2_Y1835_E1833K] is 0.8 or above.
Output line: Not met

Input line: Confirm if phosphorylation enrichment reported for the sequence QPGTDYKIYLY [FN1_Y1970] is 0.8 or above.
Output line: Met

Input line: Confirm if phosphorylation enrichment reported for the sequence TKFRNYLIPNG [CYP2C8_Y379_K383N] is 0.8 or above.
Output line: Not met

Input line: Confirm if phosphorylation enrichment reported for the sequence VGNAAYQAGSL [STK36_Y1181_P1185S] is 0.8 or above.
Output line: Not met

Input line: Confirm if phosphorylation enrichment reported for the sequence RSAGKDDVYLI [MECP2_Y120_Y120D] is 0.8 or above.
Output line: Not met

Input line: Confirm if phosphorylation enrichment reported for the sequence HRNGMYGLHQD [SGSH_Y89_Q85R] is 0.8 or above.
Output line: Not met

Input line: Confirm if phosphorylation enrichment reported for the sequence CTTIQYNYMCN [TP53_Y234_H233Q] is 0.8 or above.
Output line: Not met

Input line: Confirm if phosphorylation enrichment reported for the sequence KTVQDYLEKFY [MMP8_Y36] is 0.8 or above.
Output line: Met
